Record form. Attribute: Ki. Fill in for each entry.
target: ROCK I (Homo sapiens, UniProt Q13464); experiment: ROCK-I inhibition assay (radioactive enzyme assay, MBP substrate); type: biochemical; conditions: Table 6; enzyme inhibition data (Ki)
Sequence (Q13464 whole entry): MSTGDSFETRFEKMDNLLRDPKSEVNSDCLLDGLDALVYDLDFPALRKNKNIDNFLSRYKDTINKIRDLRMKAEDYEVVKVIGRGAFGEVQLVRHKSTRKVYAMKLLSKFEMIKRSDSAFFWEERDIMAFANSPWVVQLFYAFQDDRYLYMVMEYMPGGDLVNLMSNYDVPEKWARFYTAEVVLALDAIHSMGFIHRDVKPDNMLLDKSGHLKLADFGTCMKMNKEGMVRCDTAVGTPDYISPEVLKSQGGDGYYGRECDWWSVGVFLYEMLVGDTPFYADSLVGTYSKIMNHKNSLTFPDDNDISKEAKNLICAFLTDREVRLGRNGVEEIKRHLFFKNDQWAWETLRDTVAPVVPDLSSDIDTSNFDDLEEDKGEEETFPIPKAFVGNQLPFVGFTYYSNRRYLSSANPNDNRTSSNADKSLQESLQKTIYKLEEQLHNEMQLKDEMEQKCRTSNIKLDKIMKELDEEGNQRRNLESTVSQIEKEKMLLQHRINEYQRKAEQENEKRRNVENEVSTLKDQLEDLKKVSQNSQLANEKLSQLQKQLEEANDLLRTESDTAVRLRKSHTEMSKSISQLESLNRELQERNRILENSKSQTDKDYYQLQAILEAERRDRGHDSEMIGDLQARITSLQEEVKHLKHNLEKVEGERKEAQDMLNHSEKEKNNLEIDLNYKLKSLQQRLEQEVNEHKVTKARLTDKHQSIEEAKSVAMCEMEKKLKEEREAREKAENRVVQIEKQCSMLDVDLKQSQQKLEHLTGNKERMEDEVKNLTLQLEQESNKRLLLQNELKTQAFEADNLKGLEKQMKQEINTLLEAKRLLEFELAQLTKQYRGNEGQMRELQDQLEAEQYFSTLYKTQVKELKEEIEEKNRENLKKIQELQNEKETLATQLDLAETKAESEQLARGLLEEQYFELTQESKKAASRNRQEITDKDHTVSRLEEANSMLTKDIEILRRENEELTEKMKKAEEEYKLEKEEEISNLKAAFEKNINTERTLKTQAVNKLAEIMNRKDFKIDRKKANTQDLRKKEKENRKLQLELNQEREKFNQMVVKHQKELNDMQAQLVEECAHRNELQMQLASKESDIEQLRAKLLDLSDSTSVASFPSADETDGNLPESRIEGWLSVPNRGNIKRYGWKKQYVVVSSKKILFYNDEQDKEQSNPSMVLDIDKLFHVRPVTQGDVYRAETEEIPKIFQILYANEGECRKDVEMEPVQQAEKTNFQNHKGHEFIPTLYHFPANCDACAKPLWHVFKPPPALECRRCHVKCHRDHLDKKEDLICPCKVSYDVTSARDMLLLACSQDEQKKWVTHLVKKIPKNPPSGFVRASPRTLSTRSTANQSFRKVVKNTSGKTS

In plain terms, CC(C)CN(C)C(=O)c1cc(-c2c(Cl)cnc3[nH]ccc23)c[nH]1 has a documented Ki of 0.5 to 5 µM

Batch request: Ki for each of the following compounds.
1. CC(C)NC(=O)c1cc(-c2c(Cl)cnc3[nH]ccc23)c[nH]1
2. CCCNC(=O)c1ccccc1-c1ccnc2[nH]ccc12

0.5 to 5 µM
> 4 µM

----------
molecular target: JAK2 (Homo sapiens); experiment: JAK2 inhibition assay (as Example 3 with JAK-2 enzyme); assay type: biochemical; details: Table 6; enzyme inhibition data (Ki)
Sequence (O60674 whole entry): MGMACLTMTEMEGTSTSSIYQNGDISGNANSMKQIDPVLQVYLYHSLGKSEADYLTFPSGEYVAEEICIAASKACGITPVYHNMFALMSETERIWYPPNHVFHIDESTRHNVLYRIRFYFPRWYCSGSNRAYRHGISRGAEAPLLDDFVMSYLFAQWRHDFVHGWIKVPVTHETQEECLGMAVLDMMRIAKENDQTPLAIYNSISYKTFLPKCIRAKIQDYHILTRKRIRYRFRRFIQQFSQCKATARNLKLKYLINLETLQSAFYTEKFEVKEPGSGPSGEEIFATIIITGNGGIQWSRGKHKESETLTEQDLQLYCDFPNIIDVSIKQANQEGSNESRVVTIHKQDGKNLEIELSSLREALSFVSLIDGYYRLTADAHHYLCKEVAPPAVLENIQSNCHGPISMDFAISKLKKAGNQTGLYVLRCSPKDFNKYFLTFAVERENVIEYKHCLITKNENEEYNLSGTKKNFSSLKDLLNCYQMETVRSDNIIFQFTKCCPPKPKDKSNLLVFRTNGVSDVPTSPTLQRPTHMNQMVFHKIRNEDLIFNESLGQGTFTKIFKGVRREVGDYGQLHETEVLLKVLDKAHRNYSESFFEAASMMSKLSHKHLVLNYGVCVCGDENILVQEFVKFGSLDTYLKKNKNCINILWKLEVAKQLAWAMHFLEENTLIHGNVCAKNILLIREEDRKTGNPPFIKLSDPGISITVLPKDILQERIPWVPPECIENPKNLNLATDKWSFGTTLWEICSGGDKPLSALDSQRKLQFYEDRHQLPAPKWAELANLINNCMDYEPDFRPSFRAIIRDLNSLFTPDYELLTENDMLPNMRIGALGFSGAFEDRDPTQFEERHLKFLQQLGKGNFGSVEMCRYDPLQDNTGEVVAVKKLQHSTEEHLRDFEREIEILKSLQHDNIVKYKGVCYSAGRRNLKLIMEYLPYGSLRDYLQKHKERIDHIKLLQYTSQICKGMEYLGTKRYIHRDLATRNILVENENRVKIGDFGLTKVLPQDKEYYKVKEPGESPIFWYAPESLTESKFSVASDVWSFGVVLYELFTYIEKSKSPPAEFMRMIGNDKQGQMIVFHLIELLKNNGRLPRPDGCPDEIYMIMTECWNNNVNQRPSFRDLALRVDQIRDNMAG
endpoint name: Ki

In plain terms, CNC(=O)c1ccc(-c2ccnc3[nH]ccc23)cc1 has a documented Ki of < 0.5 µM

In plain terms, CC(C)CCNC(=O)c1csc(-c2ccnc3[nH]ccc23)n1 has a documented Ki of < 0.5 µM

In plain terms, CN(C)C1CCN(C(=O)c2cc(-c3c(Cl)cnc4[nH]ccc34)c[nH]2)C1 (centres unmarked) has a documented Ki of < 0.5 µM

In plain terms, CC1CCCCN1C(=O)c1csc(-c2ccnc3[nH]ccc23)n1 (centres unmarked) has a documented Ki of < 0.5 µM

In plain terms, O=S(=O)(c1ccccc1)n1cc(-c2c(Cl)cnc3[nH]ccc23)c2ccccc21 has a documented Ki of 0.5 to 5 µM

In plain terms, Clc1ccccc1Nc1c(Cl)cnc2[nH]ccc12 has a documented Ki of < 0.5 µM

In plain terms, CCC(=O)N1CC[C@H](Nc2c(Cl)cnc3[nH]ccc23)C1 has a documented Ki of < 0.5 µM

In plain terms, N#Cc1ccccc1-c1ccnc2[nH]ccc12 has a documented Ki of > 5 µM

In plain terms, CC(C)Oc1ccccc1-c1ccnc2[nH]ccc12 has a documented Ki of 0.5 to 5 µM

In plain terms, CCN(C)C(=O)c1cc(-c2ccnc3[nH]ccc23)c[nH]1 has a documented Ki of < 0.5 µM

Batch request: Ki for each of the following compounds.
1. c1ccc2c(c1)Oc1c(cccc1-c1ccnc3[nH]ccc13)S2
2. CC(C)CC(=O)Nc1nc(-c2ccnc3[nH]ccc23)cs1
3. CN(CCc1ccccn1)C(=O)c1cc(-c2c(Cl)cnc3[nH]ccc23)c[nH]1
4. CC(C)CN(C)C(=O)c1cc(-c2ccnc3[nH]ccc23)c[nH]1

["> 5 µM", "< 0.5 µM", "< 0.5 µM", "< 0.5 µM"]

----------
Record form. Attribute: Ki. Fill in for each entry.
target: UniProtKB P52333; experiment: JAK3 inhibition assay (33P incorporation into poly(Glu)4Tyr); format: biochemical; conditions: enzyme inhibition, Table 5
Sequence (P52333 whole entry): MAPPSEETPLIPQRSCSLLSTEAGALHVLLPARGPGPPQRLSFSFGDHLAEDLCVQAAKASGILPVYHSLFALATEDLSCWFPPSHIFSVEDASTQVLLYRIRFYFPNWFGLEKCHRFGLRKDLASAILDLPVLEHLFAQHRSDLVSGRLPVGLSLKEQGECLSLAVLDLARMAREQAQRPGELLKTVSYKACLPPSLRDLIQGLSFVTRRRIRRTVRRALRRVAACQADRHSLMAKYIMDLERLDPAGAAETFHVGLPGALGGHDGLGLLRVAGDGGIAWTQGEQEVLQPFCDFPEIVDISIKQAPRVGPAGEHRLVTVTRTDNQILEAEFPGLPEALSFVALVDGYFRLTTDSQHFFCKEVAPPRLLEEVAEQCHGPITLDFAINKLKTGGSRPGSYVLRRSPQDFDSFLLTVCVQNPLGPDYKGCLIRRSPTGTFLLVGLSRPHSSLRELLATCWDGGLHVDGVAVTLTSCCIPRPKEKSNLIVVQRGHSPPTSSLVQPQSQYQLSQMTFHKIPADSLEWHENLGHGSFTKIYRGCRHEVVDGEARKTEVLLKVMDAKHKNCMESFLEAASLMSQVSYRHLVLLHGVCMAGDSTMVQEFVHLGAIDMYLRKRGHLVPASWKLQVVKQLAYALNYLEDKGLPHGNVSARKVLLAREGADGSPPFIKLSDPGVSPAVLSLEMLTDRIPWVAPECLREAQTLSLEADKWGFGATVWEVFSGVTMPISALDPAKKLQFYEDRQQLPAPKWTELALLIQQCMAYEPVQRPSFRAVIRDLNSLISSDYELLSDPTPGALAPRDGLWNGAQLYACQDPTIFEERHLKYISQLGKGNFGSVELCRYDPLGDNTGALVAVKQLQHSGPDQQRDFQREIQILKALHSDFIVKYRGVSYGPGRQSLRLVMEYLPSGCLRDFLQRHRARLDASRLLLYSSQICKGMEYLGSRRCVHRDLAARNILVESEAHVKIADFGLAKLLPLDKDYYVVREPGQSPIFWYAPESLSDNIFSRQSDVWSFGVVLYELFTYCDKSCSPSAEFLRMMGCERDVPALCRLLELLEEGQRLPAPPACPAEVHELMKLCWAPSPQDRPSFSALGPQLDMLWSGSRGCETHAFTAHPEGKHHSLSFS

Take a look at these entries with their results.
In plain terms, CNC(=O)c1cccc(-c2ccnc3[nH]ccc23)c1 [compound 91] has a documented Ki of 500 to 5000 nM

In plain terms, Fc1cccc(-c2c(Cl)cnc3[nH]ccc23)n1 [compound 48] has a documented Ki of < 500 nM

In plain terms, Clc1cnc2[nH]ccc2c1C1=CCCCC1 [compound 29] has a documented Ki of < 500 nM

In plain terms, CCC(C)CNc1cccc(-c2ccnc3[nH]ccc23)n1 (centres unmarked) [compound 72] has a documented Ki of 500 to 5000 nM

---
In plain terms, CC(C)CNc1cccc(-c2ccnc3[nH]ccc23)n1 [compound 20] has a documented Ki of 500 to 5000 nM

----------
Target: ROCK I (Homo sapiens, UniProt Q13464)
Experiment: ROCK-I inhibition assay (radioactive enzyme assay, MBP substrate)
Type: biochemical
Details: enzyme inhibition, Ki(app), Table 5
Procedure: Compounds were screened for their ability to inhibit ROCK using a standard radioactive enzyme assay. Assays were carried out in a solution containing 100 mM HEPES (pH 7.5), 10 mM MgCl2, 25 mM NaCl, 2 mM DTT, and 1.5% DMSO. Final substrate concentrations in the assay were 13 μM [γ-^33P] […] 50 μl of Optima Gold scintillation fluid (Perkin Elmer) was added and the plates were counted on a Top Count (Perkin Elmer). […]
endpoint name: Ki

Lab entry: ROCK I (Homo sapiens, UniProt Q13464) assay, molecule c1ccc(COc2cccc(-c3ccnc4[nH]ccc34)c2)cc1 , Ki = < 500 nM

Lab entry: ROCK I (Homo sapiens, UniProt Q13464) assay, molecule O=C(c1ccc(-c2ccnc3[nH]ccc23)s1)N1CCNCC1 , Ki = < 500 nM

Lab entry: ROCK I (Homo sapiens, UniProt Q13464) assay, molecule CN(CCO)c1cccc(-c2c(Cl)cnc3[nH]ccc23)n1 , Ki = 500 to 5000 nM

Lab entry: ROCK I (Homo sapiens, UniProt Q13464) assay, molecule CNC(=O)c1cccc(-c2ccnc3[nH]ccc23)c1 , Ki = 500 to 5000 nM

Lab entry: ROCK I (Homo sapiens, UniProt Q13464) assay, molecule COCCNC(=O)c1ccc(-c2ccnc3[nH]ccc23)s1 , Ki = < 500 nM

Batch request: Ki for each of the following molecules.
1. CN(CCO)c1cccc(-c2ccnc3[nH]ccc23)n1
2. c1cc(-c2ccoc2)c2cc[nH]c2n1 [compound 133, 4-Furan-3-yl-1H-pyrrolo[2,3-b]pyridine]

1: < 500 nM; 2: < 500 nM

Batch request: Ki for each of the following molecules.
1. Clc1cc(-c2ccnc3[nH]ccc23)ccn1
2. Fc1cccc(-c2c(Cl)cnc3[nH]ccc23)n1
3. CC(=O)Nc1ccccc1-c1c(Cl)cnc2[nH]ccc12
4. Clc1cnc2[nH]ccc2c1-c1cn[nH]c1
5. c1cc(NCc2ccc3c(c2)OCO3)nc(-c2ccnc3[nH]ccc23)c1

1: 500 to 5000 nM; 2: 500 to 5000 nM; 3: 500 to 5000 nM; 4: 500 to 5000 nM; 5: 500 to 5000 nM

Batch request: Ki for each of the following molecules.
1. c1cc(CNC2CC2)cc(-c2ccnc3[nH]ccc23)c1
2. C[C@H](Nc1nc(-c2ccnc3[nH]ccc23)nc2ccccc12)C(=O)NCC(F)(F)F
3. CC(=O)N1CC=C(c2ccnc3[nH]ccc23)CC1
4. CNCc1cccc(-c2ccnc3[nH]ccc23)c1

1. < 500 nM
2. 500 to 5000 nM
3. 500 to 5000 nM
4. < 500 nM

Batch request: Ki for each of the following molecules.
1. Clc1cnc2[nH]ccc2c1NC1CCCC1
2. Clc1cnc2[nH]ccc2c1-c1cccc(N2CCCC2)n1
3. COc1cccc(CNc2cccc(-c3ccnc4[nH]ccc34)n2)c1
4. Cc1ccc(-c2ccnc3[nH]ccc23)cc1C
5. CC(=O)N1CCN(c2cccc(-c3ccnc4[nH]ccc34)n2)CC1
6. O=C(c1ccc(-c2ccnc3[nH]ccc23)s1)N1CCC[C@H]1CO
7. CC1CC=C(c2c(Cl)cnc3[nH]ccc23)C1C (stereo not drawn)

1: < 500 nM; 2: 500 to 5000 nM; 3: 500 to 5000 nM; 4: < 500 nM; 5: 500 to 5000 nM; 6: < 500 nM; 7: 500 to 5000 nM

Batch request: Ki for each of the following molecules.
1. O=C(NCCO)c1ccc(-c2ccnc3[nH]ccc23)s1
2. CN(C)C(=O)c1cccc(-c2ccnc3[nH]ccc23)c1
3. C[C@@H](CO)NC(=O)c1ccc(-c2ccnc3[nH]ccc23)s1
4. CC(C)c1cccc(-c2ccnc3[nH]ccc23)n1
5. N#CC1(c2cccc(-c3ccnc4[nH]ccc34)n2)CCCC1
6. CCC(CC)NC(=O)c1ccc(-c2ccnc3[nH]ccc23)s1

["< 500 nM", "500 to 5000 nM", "< 500 nM", "< 500 nM", "< 500 nM", "< 500 nM"]

Batch request: Ki for each of the following molecules.
1. CC(C)(Nc1nc(-c2ccnc3[nH]ccc23)ncc1F)C(=O)NCC(F)(F)F
2. COC[C@H]1CCCN1C(=O)c1ccc(-c2ccnc3[nH]ccc23)s1
3. O=C(Cc1ccccc1)Nc1cccc(-c2ccnc3[nH]ccc23)n1
4. CCOC(=O)c1cccc(-c2ccnc3[nH]ccc23)c1

["500 to 5000 nM", "< 500 nM", "500 to 5000 nM", "500 to 5000 nM"]

----------
target: ROCK I (Homo sapiens); experiment: ROCK-I inhibition assay (radioactive enzyme assay, MBP substrate); assay type: biochemical; details: Table 6; enzyme inhibition data (Ki)
pKi: −log10 of the molar value.
endpoint name: pKi

Take a look at these entries with their results.
In plain terms, Clc1cccc(-c2ccnc3[nH]ccc23)c1Cl has a documented pKi of > 6.30

In plain terms, C[C@@H](Nc1nc(-c2ccnc3[nH]ccc23)ncc1F)C(=O)NCC(F)(F)F has a documented pKi of < 5.40

In plain terms, N#CCCN(Cc1cccnc1)C(=O)c1cc(-c2c(Cl)cnc3[nH]ccc23)c[nH]1 has a documented pKi of 5.30 to 6.30

In plain terms, CC(C)(C)OC(=O)N1CCC[C@@H](Nc2c(Cl)cnc3[nH]ccc23)C1 has a documented pKi of < 5.40

In plain terms, C=CCN(C(=O)c1csc(-c2ccnc3[nH]ccc23)n1)C1CCCC1 has a documented pKi of > 6.30

Batch request: pKi for each of the following compounds.
1. CCN(CCC#N)C(=O)c1cc(-c2ccnc3[nH]ccc23)c[nH]1
2. C=CCN(CC=C)C(=O)c1cc(-c2ccnc3[nH]ccc23)c[nH]1
3. CN(Cc1cccnc1)C(=O)c1cc(-c2ccnc3[nH]ccc23)c[nH]1
4. Clc1cnc2[nH]ccc2c1Nc1cccc(-c2cnco2)c1
5. Clc1ccc(-c2c(Cl)cnc3[nH]ccc23)s1
6. N#CCN(Cc1cccc(Cl)c1)C(=O)c1cc(-c2c(F)cnc3[nH]ccc23)c[nH]1

1. > 6.30
2. > 6.30
3. > 6.30
4. < 5.40
5. < 5.40
6. > 6.30
